measured_target: T1, Human ST2-his (human, UniProt Q01638 19-328)
T1 construct: Expressed in CHO-K1; also called human ST2 fused with a 6-histidine tag at the C-terminus
T1 sequence: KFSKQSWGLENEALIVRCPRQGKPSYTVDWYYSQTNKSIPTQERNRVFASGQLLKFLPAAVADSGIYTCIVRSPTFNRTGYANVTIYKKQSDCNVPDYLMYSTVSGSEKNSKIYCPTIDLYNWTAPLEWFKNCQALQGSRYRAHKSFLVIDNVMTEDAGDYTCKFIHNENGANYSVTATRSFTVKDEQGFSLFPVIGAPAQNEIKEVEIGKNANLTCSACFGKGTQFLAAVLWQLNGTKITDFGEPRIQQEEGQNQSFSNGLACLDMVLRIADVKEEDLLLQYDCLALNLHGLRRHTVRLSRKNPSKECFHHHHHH
protocol: ELISA, coated human ST2-his
reported_property: Relative activity (%) compared with CNTO7160
Just the number please, in %, no unit attached.

// below: answered binders
# binder, measurement_units, reading
records = [
    ("5888-379H1+L2 (antibody, V domains shown, murine antibody) VH: QIQLAQSGPELKKPGETVKISCKASGYTFINYGMNWVKQAPGKDLKWMGWINTYIGEPTYGDNFKGRFAFSLETSASTVYLQINNLKNEDTATYFCAREGDGFAYWGQGTLVTVSA VL: DIVMTQSPPSLSVSVGEKVTMSCKSSQSLLYSGNQNNYLAWYQQKPGQPPKLLIYGASTRESGVPDRFTGSGSGTDFTLTISSVQAEDLAVYYCQNDHSYPYTFGGGTKLEIK", "%", 33.9),
    ("5886-156H+L (antibody, V domains shown, murine antibody) VH: DVQLQQSGPGLVKPSQSLSLTCTVTGYSITSDYAWNWIRQFPGNKLEWMGYIDYSGSTTYNPSLKSRFSITRDTSKNQFFLQLNSVTTEDTATYYCASTVIDSMDYWGQGTSVTVSS VL: DIVLTQSPASLAVSLGQRATISCRASKSVSTSGHSYMHWYQQKPGQPPKLLIYLASNLESGVPARFSGSGSGTDFTLNINPMEEEDAATYYCQHSREFPFTFGSGTKLEIK", "%", 131),
]

Name the reported Relative activity (%) compared with CNTO7160 value associated with the binder 5888-357H+L (antibody, V domains shown, murine antibody) VH: QVQLQQSVTELVRPGASVTLSCKASGYRFTDSEMHWVKQTPVHGLEWIGTIDPETGGTVYNQKFKGKAKLTADRSSSTVSMELRSLTSEDSAVYYCTRAFYNDFDDGFAYWGQGTLVTVSA VL: QIVMTQSPAIMSASPGEKVTLTCSASTSVSYMHWYQQKSGTSPKRWIYDTSKLASGVPARFSGSGSGTSYSLTISSMEAEDAATYYCQQWSSNPLTFGAGTKLELK
124
